- assay_summary: 39-week monkey toxicity study: toxicokinetics in plasma
- Assay type: in vivo, cynomolgus monkeys (Macaca fascicularis)
- settings: male, cynomolgus monkey, plasma; Day 12, 7.5 mg/kg/day oral; read-out: Cmax, male (mean)
measurement_kind: Cmax (ng/mL)
Write down the numeric answer in ng/mL and omit the unit.

Q: Field request: Cmax | item: `Cc1cn2nc(-c3cc(=O)n4cc(N5CCNC6(CC6)C5)ccc4n3)cc(C)c2n1`
Result: 1020

====

- assay_summary: Study BP39055 Part 1: pharmacokinetics (AUC0-24h,ss) in SMA patients
- Type: in vivo, human
- settings: human, in vivo; 2-11 yr, 0.02 mg/kg; read-out: estimated AUC0-24h,ss, median
measurement_kind: AUC(0-t) (ng·h/mL)
Write down the numeric answer in ng·h/mL and omit the unit.

Q: Field request: AUC(0-t) | item: `Cc1cn2nc(-c3cc(=O)n4cc(N5CCNC6(CC6)C5)ccc4n3)cc(C)c2n1`
Result: 133
